Test system: CRL-7250
MEASUREMENT NOTES: Cytotoxic Profiling of Annotated Libraries Using Quantitative High-Throughput Screening (AID 1296008); further: nearly all actives have a fitted effect of over 60% in size; on max response: on the % scale 0 is the no-effect control and ±100 the full control effect
SETUP CONDITIONS: Five cell lines viability, CellTiter-Glo ATP luminescence, 48-72 h; stronger effect = lower value
Results filed as inconclusive are left out. Activity calls are given as the source filed them. The call rests on the fitted dose curve; in most records, active means well fitted inhibition curve with a large enough effect; inconclusive means small, poorly fitted or top-dose-only effect; inactive means flat fitted curve, though single readings scatter.
METRIC: max response

Worked examples follow.
1. C[C@@H]1O[C@@H](O[C@H]2[C@@H]3C=CO[C@@H](O[C@@H]4O[C@H](CO)[C@@H](O)[C@H](O)[C@H]4O)[C@@H]3[C@@]3(CO)O[C@@H]23)[C@H](O)[C@H](OC(=O)/C=C/c2ccc(O)cc2)[C@H]1OC(=O)/C=C/c1ccc(O)cc1 :: 4.25% (inactive)
2. CC1(CO)CCCC2(C)C1C(OC(=O)c1ccccc1)CC1C(=O)OCC12O (stereo unspecified) :: -1.52% (inactive)
3. O=C(CCc1ccccc1)c1c(O)c([C@@H]2O[C@H](CO)[C@@H](O)[C@H](O)[C@H]2O)c(O)c([C@@H]2O[C@H](CO)[C@@H](O)[C@H](O)[C@H]2O)c1O :: -8.34% (inactive)
4. CC1(C)CC[C@]2(C(=O)O[C@@H]3O[C@H](CO)[C@@H](O)[C@H](O)[C@H]3O)CC[C@]3(C)C(=CCC4[C@@]5(C)CC[C@H](OC6OC(C(=O)O)C(OC7OC(CO)C(O)C(O)C7O)C(O)C6O)C(C)(C)C5CC[C@]43C)C2C1 (stereo partly specified) :: 0.724% (inactive)
5. CC(=O)Nc1cccc2c1c(Sc1ccc(Cl)cc1)c(C)n2CC(=O)O :: -5.82% (inactive)
6. CC1(C)CC(NC(=O)C(=O)Nc2ccc(Cl)cc2)CC(C)(C)N1 :: -5.64% (inactive)

Ask | Please report the recorded max response for `CC(C)C[C@H](NC(=O)[C@@H]1O[C@H]1C(=O)O)C(=O)NCCCCN=C(N)N` .
Reply | -9.88% (inactive)

Ask | And CC1=C(CC/C(C)=C/C(=O)O)[C@@]2(C)CCCC(C)(C)C2CC1=O (stereo partly specified) ?
Reply | -7.55% (inactive)

Ask | And `Oc1ccccc1-c1cc(-c2ccccc2F)[nH]n1` ?
Reply | 3.55% (inactive)

Ask | And `CN1CCN(c2nc(-c3ccc(C(=O)NC4(C(=O)NCC#N)CCCCC4)cc3)cs2)CC1` ?
Reply | 2.74% (inactive)

Ask | And `O=C(O)CC/C=C\C[C@H]1CO[C@@H](c2ccccc2Cl)O[C@H]1c1ccccc1O` ?
Reply | 3.51% (inactive)

Ask | And `CC(=O)OCC1=C[C@@H]2OC(=O)C3=CO[C@@H](O[C@@H]4O[C@H](CO)[C@@H](O)[C@H](O)[C@H]4O)[C@H]1[C@@H]32` ?
Reply | 2.42% (inactive)

Ask | And C=CC(C)(O)C1CC2C3(C)CCCC(C)(C)C3C(O)C(O)C2(C)O1 (stereo unspecified) ?
Reply | -10.8% (inactive)

Ask | And `COc1ccc2c(c1)N1C(=O)C[C@@]34C=CC[N@+]5([O-])CC[C@H]2[C@H](CC3)[C@@]145` ?
Reply | 0.465% (inactive)

Ask | And `COc1cncc(C#Cc2ccccn2)c1` ?
Reply | 4.39% (inactive)

Ask | And C=C(C(=O)O)C1CC(OC(=O)CC(C)CC)C2(C)CCCC(=C)C2C1 (stereo unspecified) ?
Reply | 4.7% (inactive)

###

Listed compounds paired with reported activity
TESTED SYSTEM: Catechol O-methyltransferase (Homo sapiens) (UniProt P21964)
Sequence (P21964 whole entry, looked up): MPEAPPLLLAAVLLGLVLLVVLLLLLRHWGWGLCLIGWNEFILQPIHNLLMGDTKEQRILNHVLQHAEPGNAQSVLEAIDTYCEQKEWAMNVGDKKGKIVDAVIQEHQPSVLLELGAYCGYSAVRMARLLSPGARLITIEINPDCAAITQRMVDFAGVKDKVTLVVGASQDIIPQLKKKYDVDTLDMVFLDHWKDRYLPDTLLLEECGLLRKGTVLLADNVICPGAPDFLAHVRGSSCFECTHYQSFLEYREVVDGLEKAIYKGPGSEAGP
MEASUREMENT NOTES: Confirmatory Screen for Target Class Profiling of Small Molecule Inhibitors of Methyltransferases (AID 1745852)
SETUP CONDITIONS: MTase-Glo luminescence, SAH detection, recombinant enzyme; measured here: COMT max response; stronger effect = lower value
Field format: number, assumed %, no unit text.

Worked examples follow.
1) C[C@@H]1O[C@@H](OC[C@H]2O[C@@H](OCc3ccccc3)[C@H](O)[C@@H](O)[C@@H]2O)[C@H](O)[C@H](O)[C@H]1O :: -64.3
2) CC(=O)NC(Cc1c[nH]c2ccccc(=O)c12)C(=O)O (stereo unspecified) :: -73.7
3) O=C(/C=C/c1ccccc1)OC[C@H]1O[C@@H](OC(=O)c2cc(O)c(O)c(O)c2)[C@H](O)[C@@H](O)[C@@H]1O :: -76.6

Ask | Please report the recorded activity for CC1(C)CC[C@]2(C(=O)O[C@@H]3O[C@H](CO)[C@@H](O)[C@H](O)[C@H]3O)CC[C@]3(C)C(=CCC4[C@@]5(C)C[C@@H](O)[C@H](O)[C@@](C)(CO)C5[C@H](O)C[C@]43C)C2[C@@H]1O (stereo partly specified) .
Reply | -79.3

###

MEASUREMENT NOTES: qHTS drug screen for cell cycle checkpoint inhibitors in PARPi-resistant BRCA-mutant ovarian cancer cell lines. (AID 1963452)
SETUP CONDITIONS: PEO1/OlaR viability, CellTiter-Glo luminescence, 96 h; measured here: PEO1 parental Z-AUC; stronger effect = lower value
So basically: is Z-AUC under 0.07? Then criterion met. Not under? Then criterion not met.

1. COCCCc1sc(-c2ccccc2)nc1C(=O)Nc1ccccc1-c1nc2cc(CN3CCCC3)cnc2s1 :: criterion met
2. CNc1nc(C)nc(N[C@H]2CCC[C@@H](C(=O)NCc3ccc(C#N)cc3C(F)(F)F)C2)n1 :: criterion not met
3. Cc1noc2c1-c1ccccc1C(c1ccc(Cl)cc1)=N[C@H]2CC(N)=O :: criterion met
4. N#CN1CCC[C@@H](n2nc(-c3ccc(Oc4ccc(F)cc4F)cc3)c(C(N)=O)c2N)C1 :: criterion met

Ask | In plain terms, does `COc1cccc2c1c(O)c(C(=O)N(C)c1ccc(C(F)(F)F)cc1)c(=O)n2C` come in under 0.07 for Z-AUC?
Reply | criterion not met

###

System: HEK293
MEASUREMENT NOTES: Cytotoxic Profiling of Annotated Libraries Using Quantitative High-Throughput Screening (AID 1296008); further: nearly all actives have a fitted effect of over 60% in size; on max response: on the % scale 0 is the no-effect control and ±100 the full control effect
SETUP CONDITIONS: Five cell lines viability, CellTiter-Glo ATP luminescence, 48-72 h; stronger effect = lower value
Records with an inconclusive call do not appear.
Listed compounds paired with reported max response
Field format: number, assumed %, no unit text.

1. Fc1ccc(-c2c3cccc(C(F)(F)F)c3nn2Cc2ccc(F)cc2Cl)cc1 :: 0.746

Ask | Please report the recorded max response for CC(=O)OC(C)C(C)(O)C(=O)O[C@@H]1CC[C@]2(C)CC(=O)C(=C(C)C)C[C@H]2[C@]1(C)OC(C)=O (some centres not stated) .
Reply | 0.4

Ask | And CC1=COC(OC2OC(CO)C(O)C(O)C2O)C2C(CO)CC(OC(=O)/C=C/c3ccc(O)cc3)C12 (configuration not stated) ?
Reply | 0.352

Ask | And CC(C)(O)C1CCC2(C)CCCC(C)(O)C2C1 (configuration not stated) ?
Reply | 2.93

Ask | And `C=C1[C@H](OC(C)=O)[C@H]2[C@@H](OC(=O)c3ccccc3)[C@@H](C)C[C@]2(O)[C@@H](OC(C)=O)[C@H](C)/C=C/C(C)(C)C(=O)[C@H](OC(C)=O)[C@H]1OC(C)=O` ?
Reply | -5.03

###

Test system: NIH3T3
MEASUREMENT NOTES: qHTS assay to identify novel small-molecules to repurpose for Merkel cell carcinoma treatment (AID 1296009); further: nearly all actives have a fitted effect of over 60% in size
SETUP CONDITIONS: MCC and control cell lines, CellTiter-Glo viability, 72 h; at 44.8 µM (top of the series) unless noted
Inconclusive results are not listed. Active and inactive are the calls of the source. The call rests on the fitted dose curve; in most records, active means well fitted inhibition curve with a large enough effect; inconclusive means small, poorly fitted or top-dose-only effect; inactive means flat fitted curve, though single readings scatter.
METRIC: outcome

1) CCC(=O)OCC(=O)[C@@]1(OC(=O)CC)[C@@H](C)C[C@H]2[C@@H]3CCC4=CC(=O)C=C[C@]4(C)[C@@]3(F)[C@@H](O)C[C@@]21C :: inactive
2) CC12CC(O)C(O)C=C1c1cc(O)cc(O)c1C(=O)O2 (centres undefined) :: inactive
3) COc1cccc(OC)c1-c1ccc(C[C@H](NC(=O)c2c(Cl)cccc2Cl)C(=O)O)cc1 :: inactive

###

Tested on: HaCat
MEASUREMENT NOTES: Cytotoxic Profiling of Annotated Libraries Using Quantitative High-Throughput Screening (AID 1296008); further: nearly all actives have a fitted effect of over 60% in size
SETUP CONDITIONS: Five cell lines viability, CellTiter-Glo ATP luminescence, 48-72 h
Inconclusive results are not listed. The source made the active and inactive calls. The call rests on the fitted dose curve; in most records, active means well fitted inhibition curve with a large enough effect; inconclusive means small, poorly fitted or top-dose-only effect; inactive means flat fitted curve, though single readings scatter. Where a SMILES comes first, the peptide text is derived from it. The star is where a group is joined. PhAc = O=C(Cc1ccccc1)*
METRIC: outcome

Worked examples follow.
1) CC1=CC(=O)C2C(C)(C)CCC[C@]2(C)[C@H]1CC[C@H](C)CC(=O)O (some centres not stated) :: inactive
2) CS(=O)(=O)c1ccccc1N1CCN(c2nc3c(c(=O)[nH]2)CSCC3)CC1 :: inactive
3) CCOC(=O)CNC(=O)[C@@H]1CCCN1C(=O)Cc1ccccc1 (PhAc-Pro-Gly-OEt) :: inactive
4) NC1=NC2(c3cc(NC(=O)c4ccc(F)cn4)ccc3F)COCC2CS1 (configuration not stated) :: inactive
5) CC(C)=CCC[C@@](C)(O)[C@H]1CC[C@]2(C)[C@@H]1[C@H](O)CC1[C@@]3(C)CC[C@H](O[C@@H]4O[C@H](CO)[C@@H](O)[C@H](O)[C@H]4O[C@@H]4O[C@H](CO)[C@@H](O)[C@H](O)[C@H]4O)C(C)(C)[C@@H]3CC[C@]12C (some centres not stated) :: inactive
6) COC(=O)C1=CO[C@@H](O[C@@H]2O[C@H](CO)[C@@H](O)[C@H](O)[C@H]2O)[C@H]2[C@@H]1[C@H](O)C[C@]2(C)O :: inactive

# context switch: different compound, same outcome
Ask | Please report the recorded outcome for CC1(CO)CCCC2(C)C1C(OC(=O)c1ccccc1)CC1C(=O)OCC12O (configuration not stated) .
Reply | inactive
